This collection of values is drawn from ChEMBL document CHEMBL1201862.

The following molecules are listed with their measured GI50 values.
system: DMS-273; assay: NCI tumour cell line growth inhibition, 48 h
Active and inactive are the calls of the source. Cut-off read from the data, not from the text of the source: active = GI50 up to about 1.1 µM and inactive = higher.
observationType: GI50

CN(C)CC1CCC(CN(C)C)C1=NO (stereo not given): > 100 µM (inactive)
COc1cc([C@H]2Oc3c(c(O)cc4oc(-c5ccccc5)cc(=O)c34)O[C@@H]2CO)ccc1O: 8.83 µM (inactive)
CCN(CC)CC1CCCCN1CC(=O)N1CC(C)C(=O)Nc2ccccc21 (stereo not given): > 100 µM (inactive)
O=C1C(c2ccccc2)=C(O)c2cccc3cccc1c23: > 100 µM (inactive)
CC(=O)O[C@@]1(C)[C@@H](C)C(=O)O[C@@H]2CCN3CC=C(COC(=O)[C@]1(C)O)[C@H]23: > 100 µM (inactive)

###

test system: OVCAR-5; assay: NCI tumour cell line growth inhibition, 48 h
The source made the active and inactive calls. Rule as the data show it: active = GI50 up to about 1.1 µM and inactive = higher.
Possible outcomes: active, inactive

COc1cccc(NC(=O)CC(=O)N2N=C(C)C(/N=N\c3ccc(S(=O)(=O)c4ccc(/N=N/C5C(=O)N(C(=O)CC(=O)Nc6cccc(OC)c6)N=C5C)cc4)cc3)C2=O)c1 (stereo not drawn): inactive
COC(=O)C1=C(O)C(C(=O)OC)[C@]2(O)[C@H](C(=O)OC)[C@H]1C[C@@H](c1cccc(OC)c1)[C@H]2C(=O)OC (stereo partly drawn): inactive
CN(CN1C(=O)C2Cc3ccccc3CN2C1=O)c1ccccn1 (stereo not drawn): inactive
COc1ccc(NC(=O)/C(=C/c2ccc(N(CCC#N)CCC#N)cc2)NC(=O)c2cc([N+](=O)[O-])ccc2Cl)cc1: inactive
CCCCNc1nc2ccccc2c2c1ncn2CC(C)C: inactive
O=C(/C=C/c1ccc(Cl)cc1)c1ccc(Cl)c(Cl)c1: inactive
CC1(C)OCC2(CO1)CSCCCSCC1(COC(C)(C)OC1)CSCCCSC2: inactive
COc1ccc2nc3ccc(OC)cc3c([S+]([O-])Cc3ccccc3)c2c1 (stereo not drawn): inactive
Cc1nc(O)nc2nc3ccc(Cl)cc3c(N(CCO)CCO)c12: inactive
CCS(=O)(=O)c1c2cc(OC)ccc2nc2ccc(OC)cc12: inactive
O=C(Nc1cc2cc([N+](=O)[O-])ccc2oc1=O)c1cccs1: inactive
COc1ccc2c(c1)c(=O)c1c(NCCCN(C)CCCNc3ccc4c(=O)n(CCN(C)C)c(=O)n5c6ccc(OC)cc6c(=O)c3c45)ccc3c(=O)n(CCN(C)C)c(=O)n2c31: active
C=CCN1C(=O)/C(=C/c2ccccc2)N=C1SC1OC(COC(=O)c2ccccc2)C(OC(=O)c2ccccc2)C1OC(=O)c1ccccc1 (stereo not drawn): inactive
COc1ccc(C(O)c2ccccn2)cc1 (stereo not drawn): inactive
Cn1cnc([N+](=O)[O-])c1[Se]c1ncnc2nc[nH]c12: inactive
O=S(=O)(O)c1cc(S(=O)(=O)O)c2c(/N=N/c3ccc(S(=O)(=O)O)c4ccccc34)c(O)ccc2c1: inactive
C[N+](C)(CCNC(=O)c1cccc2cc3ccccc3nc12)Cc1ccc([N+](=O)[O-])cc1: inactive
COC[C@H]1OC(=O)c2coc3c2[C@@]1(C)C1=C(C3=O)[C@@H]2CCC(=O)[C@@]2(C)C[C@H]1OC(C)=O: inactive
Fc1nc(-c2c3ccccc3c3sc4ccccc4n23)nc(N2CCOCCOCCOCCOCC2)n1: inactive
CCOC(=O)C(SCCO)C(C(=O)OCC)n1cnc2c(N)ncnc21 (stereo not drawn): inactive
COc1ccc(C(=O)NCCN(C)C)c2nc3ccccc3cc12: active
N#C/C(=C\c1ccc(O)c(O)c1)C(N)=O: inactive
O=[N+]([O-])c1ccc2c3c1[C@@H]1O[C@@H]1c1cccc(c1-3)[C@@H]1O[C@H]21: inactive
COc1cc2c(cc1OCCCCN1CCN(CCCCOc3cc4c(cc3OC)C(=O)N3CCC[C@H]3C=N4)CC1)N=C[C@@H]1CCCN1C2=O: active
Nc1nc(N)c2nnn(C[C@H]3CC[C@@H](CO)C3)c2n1: inactive
O=C(CC(=O)CC(O)(C(F)(F)F)C(F)(F)F)CC(O)(C(F)(F)F)C(F)(F)F: inactive
O=C1C(=O)N(C(=O)c2ccc(Cl)c(Cl)c2)c2ccc(Cl)cc21: inactive
O=C(O)Cc1ccccc1CCc1ccccc1Cl: inactive
Cc1ccc(Nc2sc(C)cc2C#N)c([N+](=O)[O-])c1: inactive
CC(C)C(/C=C/c1ccc(Cl)c(Cl)c1)=N\NC(=O)N/N=C(/C=C/c1ccc(Cl)c(Cl)c1)C(C)C: inactive
Cc1cccc(C)c1NC(=O)C1C(=O)N(c2c(C)cccc2C)C(=O)/C1=N\N (stereo not drawn): inactive
CC1CCCc2c(CC3CC(=O)NC(=O)C3)n[nH]c21 (stereo not drawn): inactive
C=C(C)COC(=O)COCC(=O)OCC(=C)C: inactive
O=C1C[C@H]2CCCN2[C@@H](c2ccccc2)C1: inactive
O=c1c(F)cn(Cc2c(Cl)cccc2Cl)c(=O)n1Cc1c(Cl)cccc1Cl: inactive
COc1ccc(OC)c2nc3c(C(=O)NCCN(C)C)cccc3nc12: inactive
COc1cc(CCc2ccc(N)cc2)cc(OC)c1OC: inactive
COc1cccc(CCn2c(N)c(C(=O)O)c3ccc([N+](=O)[O-])cc3c2=O)c1: inactive
